Taken from PubChem BioAssay AID248.

Tested on: L1210 leukemia ip in BDF1 mice, survival T/C
Assay: NCI In Vivo Anticancer Drug Screen. Data for tumor model L1210 Leukemia (intraperitoneal) in B6D2F1 (BDF1) mice
Conditions: endpoint: mean survival time; dose: 200.0 mg/kg/injection; schedule: Q01DX001 (ip); vehicle: carboxymethylcellulose (CMC); higher = longer survival
Inconclusive results and toxic doses are left out.
measured_quantity: T/C

// below: answered compounds
compound	system_tested	result
Nc1nc(N)c(N=Nc2ccc(S(=O)(=O)Nc3ncccn3)cc2)cc1N=Nc1ccccc1	L1210 leukemia ip in BDF1 mice, survival T/C	95 % of control
CCCCCCCCC1OCC(C)(C)C(C(C)C)O1 (stereo unspecified)	L1210 leukemia ip in BDF1 mice, survival T/C	107 % of control
COc1cc(C)cccc1=O	L1210 leukemia ip in BDF1 mice, survival T/C	96 % of control
OC1c2cc(Cl)ccc2-c2c(N=Cc3ccc4c(c3)OCO4)cc(Cl)cc21 (stereo unspecified)	L1210 leukemia ip in BDF1 mice, survival T/C	90 % of control
Nc1nc(N)nc(CCCCCCc2nc(N)nc(N)n2)n1	L1210 leukemia ip in BDF1 mice, survival T/C	98 % of control

# get_value(readout= T/C, system= L1210 leukemia ip in BDF1 mice, survival T/C) for O=C(c1ccsc1)C(O)c1ccccc1 (stereo unspecified)
87 % of control

Please state recorded T/C (tested on L1210 leukemia ip in BDF1 mice, survival T/C) of `CCCCCCCC/C=C\CCCCCCCCOB(OCCCCCCCC/C=C/CCCCCCCC)OCCCCCCCC/C=C/CCCCCCCC`
105 % of control

What measured T/C is associated with O=C1COC2CCCCC2O1 (stereo unspecified) on L1210 leukemia ip in BDF1 mice, survival T/C?
101 % of control

Provide value of T/C for this record tested with L1210 leukemia ip in BDF1 mice, survival T/C: `O=NN(CCCl)C(=O)CCCCC(=O)N(CCCl)N=O`
122 % of control

Given the entry Cc1ccccc1NP1(=O)OCCCN1Cc1ccc(Cl)c(Cl)c1 (stereo unspecified) , what T/C was observed with L1210 leukemia ip in BDF1 mice, survival T/C?
98 % of control

So what T/C did O=P1(Nc2ccccc2)OCCCN1Cc1ccccc1Cl (stereo unspecified) get with L1210 leukemia ip in BDF1 mice, survival T/C?
98 % of control

Can you look up T/C on L1210 leukemia ip in BDF1 mice, survival T/C for `O=S(=O)([O-])CC[n+]1ccc(-c2ccccc2)o1` ?
97 % of control

So what T/C did `CC(=O)c1c(O)cc(O)cc1-c1cc(=O)c2c(O)ccc(C(C)=O)c2o1` get with L1210 leukemia ip in BDF1 mice, survival T/C?
94 % of control

Hi! What's the reported T/C for `CCOC(=O)CCc1c(C)c2cc(C(C)=O)c(O)cc2oc1=O` on L1210 leukemia ip in BDF1 mice, survival T/C?
94 % of control

Give T/C (L1210 leukemia ip in BDF1 mice, survival T/C) of the following compound: `Oc1ccc(/C=N/Nc2nnc(N/N=C/c3ccc(O)cc3O)c3ccccc23)c(O)c1`
121 % of control

Give L1210 leukemia ip in BDF1 mice, survival T/C T/C for `O=C(O)c1cccc(SSc2cccc(C(=O)O)c2)c1`
100 % of control

Form field - read-out: T/C; system: L1210 leukemia ip in BDF1 mice, survival T/C; submitted item: `COc1ccc(C=Nc2cccc(O)c2)cc1`
95 % of control

Short answer please: T/C, L1210 leukemia ip in BDF1 mice, survival T/C, entry `CCOC(=O)c1c(O)c(C(=O)O)cc2ccccc12`
106 % of control

Item: `CN(C)c1c(F)c(F)c(N=Nc2ccccc2)c(F)c1F` Test system: L1210 leukemia ip in BDF1 mice, survival T/C Read-out: T/C Value: ?
114 % of control

For the record `CCS(=O)(=O)c1ccc(NC(=O)Oc2ccccc2OC)cc1` , what value of T/C is listed for L1210 leukemia ip in BDF1 mice, survival T/C?
100 % of control

What value of T/C on L1210 leukemia ip in BDF1 mice, survival T/C does `O=c1[nH]nnc2c1cnn2-c1ccccc1` have?
97 % of control
